METHOD SUMMARY: Antiproliferative activity against human L02 cells treated for 72 hrs by MTT assay
Assay type: toxicity, cell-based
OBSERVABLE: IC50 at 72 h (µM)
The figure you give is taken to be in µM; do not add the unit.

Ask | // lookup IC50 at 72 h for COc1ccc2[nH]c3c(c2c1)CCN1C(=O)c2cc(F)ccc2N(c2ccc(F)c(F)c2)C31 (centres undefined)
Reply | 3.46

Ask | Field request: IC50 at 72 h | item: CN1c2ccccc2C(=O)N2CCc3c([nH]c4ccccc34)C21 (centres undefined)
Reply | 3.95

Ask | Give its IC50 at 72 h value. Item: CCOc1ccc2[nH]c3c(c2c1)CCN1C(=O)c2cc(F)cc(F)c2N(c2cccc(F)c2)C31 (centres undefined)
Reply | 1.8

Ask | Requested read-out: IC50 at 72 h. Entry: CNC(=O)c1cc(Oc2ccc(NC(=O)Nc3ccc(Cl)c(C(F)(F)F)c3)cc2)ccn1 [SORAFENIB]
Reply | 5.98

Ask | I'd like to know its IC50 at 72 h. The molecule in question is COc1ccc2[nH]c3c(c2c1)CCN1C(=O)c2cc(F)ccc2N(c2cc(F)ccc2F)C31 (centres undefined)
Reply | 4.67

Ask | Query: IC50 at 72 h; subject: CC(=O)Oc1ccc2[nH]c3c(c2c1)CCN1C(=O)c2cc(F)cc(F)c2N(c2cccc(F)c2)C31 (centres undefined)
Reply | 0.95

---

System: HepG2
METHOD SUMMARY: Antiproliferative activity against human HepG2 cells treated for 72 hrs by MTT assay
Format: functional, cell-based
RECORDED CONDITIONS: HepG2, 72 h
OBSERVABLE: pIC50
Field pIC50 (float): negative decimal logarithm of the concentration in molar.

Ask | Give HepG2 pIC50 for COc1ccc2[nH]c3c(c2c1)CCN1C(=O)c2cc(F)ccc2N(c2cc(C)cc(F)c2)C31 (centres undefined)
Reply | 5.14

Ask | Request body: readout pIC50, system HepG2, query COc1ccc2[nH]c3c(c2c1)CCN1C(=O)c2cc(F)ccc2N(c2cc(F)ccc2Cl)C31 (centres undefined) . Return the value.
Reply | 5.06

Ask | Query for HepG2: what pIC50 does the record show for CN1c2ccccc2C(=O)N2CCc3c([nH]c4ccccc34)C21 (centres undefined) ?
Reply | 5.57

Each recorded value in this set is attributed to ChEMBL document CHEMBL5154935.
